Tested on: 519858-162-T-J1-PDC complex spheroid growth, % test/control
EXPERIMENT NOTES: Anticancer human tumor 519858-162-T-J1-PDC patient-derived colon adenocarcinoma cell line growth inhibition [Asc]
TEST CONTEXT: second compound 1 µM; first compound 0.0316 µM; stronger effect = lower value
REPORTED ENDPOINT: viability, T/C (%)
Form entry: value (%) — number only.

Sample O=C(c1cc(Cc2n[nH]c(=O)c3ccccc23)ccc1F)N1CCN(C(=O)C2CC2)CC1 + CNC(C)C(=O)NC1CN(S(=O)(=O)c2cccc(S(=O)(=O)N3CCC4CCC(C(=O)NC(c5ccccc5)c5ccccc5)N4C(=O)C(NC(=O)C(C)NC)C3)c2)CCC2CCC(C(=O)NC(c3ccccc3)c3ccccc3)N2C1=O — what was its viability, T/C?
80.7

// query: O=C(c1cc(Cc2n[nH]c(=O)c3ccccc23)ccc1F)N1CCN(C(=O)C2CC2)CC1 + Cc1c(S(C)(=O)=O)c(-c2cc(F)cc(N3CCN(c4ccc(NS(=O)(=O)c5ccc(NC(CCN6CCC(C(=O)OCCCP(=O)(O)O)CC6)CSc6ccccc6)c(S(=O)(=O)C(F)(F)F)c5)cc4)CC3)c2)c(-c2ccc(Cl)cc2)n1C(C)C
95.4

* * *

System: 519858-162-T-J1-PDC complex spheroid growth, % test/control
EXPERIMENT NOTES: Anticancer human tumor 519858-162-T-J1-PDC cell line growth inhibition [Asc];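 note: seven day drug exposure begun three days after spheroid seeding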;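 for viability, T/C: 100% = DMSO vehicle wells and lower values mean less viable spheroid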
TEST CONTEXT: second compound 1 µM; first compound 0.1 µM; stronger effect = lower value
Rule for this label: True means viability, T/C is less than 80%; False means viability, T/C is at least 80%.

COMPOUND: O=C(c1cc(Cc2n[nH]c(=O)c3ccccc23)ccc1F)N1CCN(C(=O)C2CC2)CC1 + CNC(C)C(=O)NC1CN(S(=O)(=O)c2cccc(S(=O)(=O)N3CCC4CCC(C(=O)NC(c5ccccc5)c5ccccc5)N4C(=O)C(NC(=O)C(C)NC)C3)c2)CCC2CCC(C(=O)NC(c3ccccc3)c3ccccc3)N2C1=O
CATEGORY LABEL: False

COMPOUND: CNC(C)C(=O)NC1CN(S(=O)(=O)c2cccc(S(=O)(=O)N3CCC4CCC(C(=O)NC(c5ccccc5)c5ccccc5)N4C(=O)C(NC(=O)C(C)NC)C3)c2)CCC2CCC(C(=O)NC(c3ccccc3)c3ccccc3)N2C1=O (centres undefined) + Cc1c(S(C)(=O)=O)c(-c2cc(F)cc(N3CCN(c4ccc(NS(=O)(=O)c5ccc(NC(CCN6CCC(C(=O)OCCCP(=O)(O)O)CC6)CSc6ccccc6)c(S(=O)(=O)C(F)(F)F)c5)cc4)CC3)c2)c(-c2ccc(Cl)cc2)n1C(C)C
CATEGORY LABEL: False

COMPOUND: C=C(F)C(=O)N1CCN(c2nc(OCC3CCCN3C)nc3c2CCN(c2cccc4cccc(Cl)c24)C3)CC1CC#N (centres undefined) + Cc1c(S(C)(=O)=O)c(-c2cc(F)cc(N3CCN(c4ccc(NS(=O)(=O)c5ccc(NC(CCN6CCC(C(=O)OCCCP(=O)(O)O)CC6)CSc6ccccc6)c(S(=O)(=O)C(F)(F)F)c5)cc4)CC3)c2)c(-c2ccc(Cl)cc2)n1C(C)C
CATEGORY LABEL: False

COMPOUND: C#Cc1c(F)ccc2cc(O)cc(-c3ncc4c(N5CC6CCC(C5)N6)nc(OCC56CCCN5CC(F)C6)nc4c3F)c12 (centres undefined) + CNC(C)C(=O)NC1CN(S(=O)(=O)c2cccc(S(=O)(=O)N3CCC4CCC(C(=O)NC(c5ccccc5)c5ccccc5)N4C(=O)C(NC(=O)C(C)NC)C3)c2)CCC2CCC(C(=O)NC(c3ccccc3)c3ccccc3)N2C1=O
CATEGORY LABEL: False

COMPOUND: COc1c(OCCCN2CCOCC2)ccc2c3n(c(=NC(=O)c4cnc(N)nc4)nc12)CCN3 + CNC(C)C(=O)NC1CN(S(=O)(=O)c2cccc(S(=O)(=O)N3CCC4CCC(C(=O)NC(c5ccccc5)c5ccccc5)N4C(=O)C(NC(=O)C(C)NC)C3)c2)CCC2CCC(C(=O)NC(c3ccccc3)c3ccccc3)N2C1=O
CATEGORY LABEL: True

I wonder whether C=CC(=O)N1CCN(c2nc(=O)n(-c3c(C)ccnc3C(C)C)c3nc(-c4c(O)cccc4F)c(F)cc23)C(C)C1 (centres undefined) + Cc1c(S(C)(=O)=O)c(-c2cc(F)cc(N3CCN(c4ccc(NS(=O)(=O)c5ccc(NC(CCN6CCC(C(=O)OCCCP(=O)(O)O)CC6)CSc6ccccc6)c(S(=O)(=O)C(F)(F)F)c5)cc4)CC3)c2)c(-c2ccc(Cl)cc2)n1C(C)C has viability, T/C below 80%. Can you tell?
True

Now the compound C=C(F)C(=O)N1CCN(c2nc(OCC3CCCN3C)nc3c2CCN(c2cccc4cccc(Cl)c24)C3)CC1CC#N (centres undefined) + CNC(C)C(=O)NC1CN(S(=O)(=O)c2cccc(S(=O)(=O)N3CCC4CCC(C(=O)NC(c5ccccc5)c5ccccc5)N4C(=O)C(NC(=O)C(C)NC)C3)c2)CCC2CCC(C(=O)NC(c3ccccc3)c3ccccc3)N2C1=O
False

Ok, now Cn1ncnc1[C@H]1c2n[nH]c(=O)c3cc(F)cc(c23)N[C@@H]1c1ccc(F)cc1 + Cc1c(S(C)(=O)=O)c(-c2cc(F)cc(N3CCN(c4ccc(NS(=O)(=O)c5ccc(NC(CCN6CCC(C(=O)OCCCP(=O)(O)O)CC6)CSc6ccccc6)c(S(=O)(=O)C(F)(F)F)c5)cc4)CC3)c2)c(-c2ccc(Cl)cc2)n1C(C)C
False

C#Cc1c(F)ccc2cc(O)cc(-c3ncc4c(N5CC6CCC(C5)N6)nc(OCC56CCCN5CC(F)C6)nc4c3F)c12 (centres undefined) + Cc1c(S(C)(=O)=O)c(-c2cc(F)cc(N3CCN(c4ccc(NS(=O)(=O)c5ccc(NC(CCN6CCC(C(=O)OCCCP(=O)(O)O)CC6)CSc6ccccc6)c(S(=O)(=O)C(F)(F)F)c5)cc4)CC3)c2)c(-c2ccc(Cl)cc2)n1C(C)C ?
True

Would you mind doing O=C(c1ccc(F)c(F)c1Nc1ccc(I)cc1F)N1CC(O)([C@@H]2CCCCN2)C1 + Cc1c(S(C)(=O)=O)c(-c2cc(F)cc(N3CCN(c4ccc(NS(=O)(=O)c5ccc(NC(CCN6CCC(C(=O)OCCCP(=O)(O)O)CC6)CSc6ccccc6)c(S(=O)(=O)C(F)(F)F)c5)cc4)CC3)c2)c(-c2ccc(Cl)cc2)n1C(C)C as well?
True

Input O=C(c1cc(Cc2n[nH]c(=O)c3ccccc23)ccc1F)N1CCN(C(=O)C2CC2)CC1 + Cc1c(S(C)(=O)=O)c(-c2cc(F)cc(N3CCN(c4ccc(NS(=O)(=O)c5ccc(NC(CCN6CCC(C(=O)OCCCP(=O)(O)O)CC6)CSc6ccccc6)c(S(=O)(=O)C(F)(F)F)c5)cc4)CC3)c2)c(-c2ccc(Cl)cc2)n1C(C)C
False

* * *

Test system: 519858-162-T-J1-PDC complex spheroid growth, % test/control
EXPERIMENT NOTES: Anticancer human tumor 519858-162-T-J1-PDC cell line growth inhibition [Asc];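 note: seven day drug exposure begun three days after spheroid seeding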
TEST CONTEXT: curve of first compound; second compound 0.00316 µM
pIC50: −log10 of the molar value.
REPORTED ENDPOINT: pIC50

Answered examples (2):
COMPOUND: NC1CCC(NC2CC2c2ccccc2)CC1 (configuration not stated) + CNC(C)C(=O)NC1CN(S(=O)(=O)c2cccc(S(=O)(=O)N3CCC4CCC(C(=O)NC(c5ccccc5)c5ccccc5)N4C(=O)C(NC(=O)C(C)NC)C3)c2)CCC2CCC(C(=O)NC(c3ccccc3)c3ccccc3)N2C1=O
REPORTED ENDPOINT: pIC50
RESULT: < 7.00
--
COMPOUND: C=CC(=O)N1CCN(c2nc(=O)n(-c3c(C)ccnc3C(C)C)c3nc(-c4c(O)cccc4F)c(F)cc23)C(C)C1 (configuration not stated) + CNC(C)C(=O)NC1CN(S(=O)(=O)c2cccc(S(=O)(=O)N3CCC4CCC(C(=O)NC(c5ccccc5)c5ccccc5)N4C(=O)C(NC(=O)C(C)NC)C3)c2)CCC2CCC(C(=O)NC(c3ccccc3)c3ccccc3)N2C1=O
REPORTED ENDPOINT: pIC50
RESULT: < 5.00

Under 519858-162-T-J1-PDC complex spheroid growth, % test/control: pIC50 value of C#Cc1c(F)ccc2cc(O)cc(-c3ncc4c(N5CC6CCC(C5)N6)nc(OCC56CCCN5CC(F)C6)nc4c3F)c12 (configuration not stated) + CNC(C)C(=O)NC1CN(S(=O)(=O)c2cccc(S(=O)(=O)N3CCC4CCC(C(=O)NC(c5ccccc5)c5ccccc5)N4C(=O)C(NC(=O)C(C)NC)C3)c2)CCC2CCC(C(=O)NC(c3ccccc3)c3ccccc3)N2C1=O ?
< 5.00

Also, NC(=O)C(=Cn1cnc(-c2cc(C(F)(F)F)cc(C(F)(F)F)c2)n1)c1cncnc1 + CNC(C)C(=O)NC1CN(S(=O)(=O)c2cccc(S(=O)(=O)N3CCC4CCC(C(=O)NC(c5ccccc5)c5ccccc5)N4C(=O)C(NC(=O)C(C)NC)C3)c2)CCC2CCC(C(=O)NC(c3ccccc3)c3ccccc3)N2C1=O please.
< 6.52

And Cc1nc(N2CCC3(CC2)COC(C)C3N)c(CO)nc1Sc1ccnc(N)c1Cl (configuration not stated) + CNC(C)C(=O)NC1CN(S(=O)(=O)c2cccc(S(=O)(=O)N3CCC4CCC(C(=O)NC(c5ccccc5)c5ccccc5)N4C(=O)C(NC(=O)C(C)NC)C3)c2)CCC2CCC(C(=O)NC(c3ccccc3)c3ccccc3)N2C1=O ?
< 5.52

Ok, now CCN1CCN(Cc2ccc(Nc3ncc(F)c(-c4cc(F)c5nc(C)n(C(C)C)c5c4)n3)nc2)CC1 + CNC(C)C(=O)NC1CN(S(=O)(=O)c2cccc(S(=O)(=O)N3CCC4CCC(C(=O)NC(c5ccccc5)c5ccccc5)N4C(=O)C(NC(=O)C(C)NC)C3)c2)CCC2CCC(C(=O)NC(c3ccccc3)c3ccccc3)N2C1=O
< 6.00

O=C(c1ccc(F)c(F)c1Nc1ccc(I)cc1F)N1CC(O)([C@@H]2CCCCN2)C1 + CNC(C)C(=O)NC1CN(S(=O)(=O)c2cccc(S(=O)(=O)N3CCC4CCC(C(=O)NC(c5ccccc5)c5ccccc5)N4C(=O)C(NC(=O)C(C)NC)C3)c2)CCC2CCC(C(=O)NC(c3ccccc3)c3ccccc3)N2C1=O , same question.
6.50

Would you mind doing C=C(F)C(=O)N1CCN(c2nc(OCC3CCCN3C)nc3c2CCN(c2cccc4cccc(Cl)c24)C3)CC1CC#N (configuration not stated) + CNC(C)C(=O)NC1CN(S(=O)(=O)c2cccc(S(=O)(=O)N3CCC4CCC(C(=O)NC(c5ccccc5)c5ccccc5)N4C(=O)C(NC(=O)C(C)NC)C3)c2)CCC2CCC(C(=O)NC(c3ccccc3)c3ccccc3)N2C1=O as well?
< 5.00

Cool, now Cn1ncnc1[C@H]1c2n[nH]c(=O)c3cc(F)cc(c23)N[C@@H]1c1ccc(F)cc1 + CNC(C)C(=O)NC1CN(S(=O)(=O)c2cccc(S(=O)(=O)N3CCC4CCC(C(=O)NC(c5ccccc5)c5ccccc5)N4C(=O)C(NC(=O)C(C)NC)C3)c2)CCC2CCC(C(=O)NC(c3ccccc3)c3ccccc3)N2C1=O
< 7.00

What do we get for CCN1C(C(=O)NC23CCC(C(=O)O)(CC2)CC3)C(c2cccc(Cl)c2F)C2(C(=O)Nc3cc(Cl)ccc32)C12CCCCC2 (configuration not stated) + CNC(C)C(=O)NC1CN(S(=O)(=O)c2cccc(S(=O)(=O)N3CCC4CCC(C(=O)NC(c5ccccc5)c5ccccc5)N4C(=O)C(NC(=O)C(C)NC)C3)c2)CCC2CCC(C(=O)NC(c3ccccc3)c3ccccc3)N2C1=O ?
< 5.52

What would you report for O=C(c1cc(Cc2n[nH]c(=O)c3ccccc23)ccc1F)N1CCN(C(=O)C2CC2)CC1 + CNC(C)C(=O)NC1CN(S(=O)(=O)c2cccc(S(=O)(=O)N3CCC4CCC(C(=O)NC(c5ccccc5)c5ccccc5)N4C(=O)C(NC(=O)C(C)NC)C3)c2)CCC2CCC(C(=O)NC(c3ccccc3)c3ccccc3)N2C1=O ?
< 5.00

Also check COc1c(OCCCN2CCOCC2)ccc2c3n(c(=NC(=O)c4cnc(N)nc4)nc12)CCN3 + CNC(C)C(=O)NC1CN(S(=O)(=O)c2cccc(S(=O)(=O)N3CCC4CCC(C(=O)NC(c5ccccc5)c5ccccc5)N4C(=O)C(NC(=O)C(C)NC)C3)c2)CCC2CCC(C(=O)NC(c3ccccc3)c3ccccc3)N2C1=O
6.49
